Please respond with reported Internalization %, MDA-MB-231, 0.25 µg/ml, 4 h for every item in the list.
Target: T1, human Trop-2 expressed on cell surface (human, UniProt P09758 27-323)
T1 sequence (looked up): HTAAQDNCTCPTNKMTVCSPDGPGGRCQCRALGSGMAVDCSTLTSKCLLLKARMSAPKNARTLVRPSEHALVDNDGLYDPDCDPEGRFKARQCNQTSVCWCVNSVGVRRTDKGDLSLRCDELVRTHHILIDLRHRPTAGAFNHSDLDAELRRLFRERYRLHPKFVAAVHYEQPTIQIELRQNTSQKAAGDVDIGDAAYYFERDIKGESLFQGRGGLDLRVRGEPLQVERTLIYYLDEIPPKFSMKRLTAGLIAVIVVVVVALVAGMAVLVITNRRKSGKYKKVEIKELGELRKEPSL
Assay: cell-based or functional assay
Number only, in %; omit the unit.

Query 9F7 (antibody, V domains shown, Rabbit-derived clone; LEM construct: VH + rabbit IgG CH1 + human IgG1 CH2-CH3) VH: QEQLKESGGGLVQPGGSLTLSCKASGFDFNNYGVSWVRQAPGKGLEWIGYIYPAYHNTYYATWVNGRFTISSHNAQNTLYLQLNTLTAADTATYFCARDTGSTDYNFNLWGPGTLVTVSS VL: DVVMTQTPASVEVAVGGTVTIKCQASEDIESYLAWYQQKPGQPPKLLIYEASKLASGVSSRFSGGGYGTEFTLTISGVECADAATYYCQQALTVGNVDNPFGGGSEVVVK yields Internalization %, MDA-MB-231, 0.25 µg/ml, 4 h of 38

Query 1D10 (antibody, V domains shown, Rabbit-derived clone; LEM construct: VH + rabbit IgG CH1 + human IgG1 CH2-CH3) VH: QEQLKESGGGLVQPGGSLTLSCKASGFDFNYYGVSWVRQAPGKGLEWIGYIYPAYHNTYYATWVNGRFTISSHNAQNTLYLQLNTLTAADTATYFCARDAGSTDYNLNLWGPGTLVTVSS VL: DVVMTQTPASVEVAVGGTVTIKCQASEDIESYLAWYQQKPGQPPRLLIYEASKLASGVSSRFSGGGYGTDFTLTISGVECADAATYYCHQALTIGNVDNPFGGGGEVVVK yields Internalization %, MDA-MB-231, 0.25 µg/ml, 4 h of 53

Query 72F12 (antibody, V domains shown, Rabbit-derived clone; LEM construct: VH + rabbit IgG CH1 + human IgG1 CH2-CH3) VH: QEQLKESGGGLVQPGGSLKLSCKASGFDFNNYGVSWVRQAPGKGLEWIAYIYPAFHNTYYATWVNGRFTISSHNAQNTLYLQLNSLTAADTATYFCARDAGSVDYNFNLWGPGTLVTVSS VL: DVVMTQTPASVEVAVGGTVTIKCQASKNIDSNLAWYQQKPGQPPKQLIYAASTLASGVSSRFSGSGYGAEFTLTISGVECADAATYYCQQALTIGNVDNPFGGGSEVVVK yields Internalization %, MDA-MB-231, 0.25 µg/ml, 4 h of 48

Query 9D7 (antibody, V domains shown, Rabbit-derived clone; LEM construct: VH + rabbit IgG CH1 + human IgG1 CH2-CH3) VH: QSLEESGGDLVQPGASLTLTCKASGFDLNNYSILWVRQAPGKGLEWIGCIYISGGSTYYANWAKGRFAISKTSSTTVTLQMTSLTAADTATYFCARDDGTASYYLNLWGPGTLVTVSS VL: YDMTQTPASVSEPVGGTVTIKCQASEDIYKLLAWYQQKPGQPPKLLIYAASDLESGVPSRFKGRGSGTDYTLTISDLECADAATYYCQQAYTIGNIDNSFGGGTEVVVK yields Internalization %, MDA-MB-231, 0.25 µg/ml, 4 h of 52

Query 74F11/15F5 (antibody, human IgG1, V domains shown, LEM construct: VH + rabbit IgG CH1 + human IgG1 CH2-CH3) VH: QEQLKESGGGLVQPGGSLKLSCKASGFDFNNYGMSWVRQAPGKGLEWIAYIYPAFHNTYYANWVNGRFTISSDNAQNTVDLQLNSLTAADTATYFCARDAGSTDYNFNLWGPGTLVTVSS VL: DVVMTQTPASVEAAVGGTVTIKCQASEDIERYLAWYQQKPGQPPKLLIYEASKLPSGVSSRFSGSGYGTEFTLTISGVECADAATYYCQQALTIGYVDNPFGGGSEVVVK yields Internalization %, MDA-MB-231, 0.25 µg/ml, 4 h of 52
